Tested on: db/db mice
assay-comment: Hypoglycemic activity in mice
Type: in vivo
conditions: Mus musculus, po, 30 mg/kg once a day for four consecutive days, suspended in 0.5% methyl cellulose
measured-property: inhibition in vivo at 30 mg/kg (%)
One number for each entry, in %.

For every item in the list below, what is its measured inhibition in vivo at 30 mg/kg?
1. Cc1oc(-c2ccc(O)c(C(C)(C)C)c2)nc1CCOc1ccc(NS(=O)(=O)C(F)(F)F)cc1
2. Cc1oc(-c2ccccc2)nc1CC(=O)Nc1ccc(C(=O)O)c(O)c1
3. CCOc1cc(OCCc2nc(-c3ccccc3)oc2C)ccc1C(=O)O
4. CCOc1cc(OCCc2nc(-c3ccccc3)oc2C)ccc1NS(=O)(=O)C(F)(F)F
5. Cc1oc(-c2ccccc2)nc1CC(=O)Nc1ccc(NS(=O)(=O)C(F)(F)F)cc1

### Response
1. 51
2. 10.5
3. 19
4. 53.4
5. 65.4

----------
Would you mind telling me the reported melting point of each entry?

// worked examples, melting point included
# molecule, reported-result
records = [
    ("Cc1oc(-c2ccccc2)nc1CC(=O)Nc1ccc(NS(=O)(=O)C(F)(F)F)cc1 [Compound 48]", "147 to 149 °C"),
    ("Cc1oc(-c2ccc(OCC(=O)O)cc2)nc1CCOc1ccc(NS(=O)(=O)C(F)(F)F)cc1 [Compound 67]", "167 to 168 °C"),
    ("CCOc1cc(OCCc2nc(-c3ccccc3)oc2C)ccc1NS(=O)(=O)C(F)(F)F [Compound 40]", "133 to 135 °C"),
    ("Cc1oc(-c2ccccc2)nc1CCOc1ccc(CNS(=O)(=O)C(F)(F)F)cc1 [Compound 9]", "113 to 115 °C"),
    ("COC(=O)c1ccc(OCCc2nc(-c3ccccc3)oc2C)cc1O [Compound 25]", "133 to 134 °C"),
]

### Prompt What value of melting point has been reported for the following molecule? Cc1oc(-c2ccccc2)nc1CCOc1ccc(NC(=O)C(=O)O)cc1 [Compound 8]
### Response 196 to 198 °C
